Taken from paper PMC12040169.

# experimental.protocol: in vitro
# experimental.setup: human, hela cells, % viability
metric: viability at 28.5 h, 10 µM (%)
One number for each entry, in %.

List reported viability at 28.5 h, 10 µM for each of these compounds:
1. O=C(COc1ccccc1)N1CCC(c2cc3cnccc3[nH]2)CC1 [CBK283449]
2. O=C(NCc1ccccc1)[C@H]1CN2CCC1C[C@@H]2Cn1cc(-c2ccc(F)cc2)nn1 (some centres unmarked) [CBK288736]

[out]
[97.6, 87]

Kindly give each listed record's viability at 28.5 h, 10 µM.
1. O=C(c1ccc2[nH]ccc2c1)N1CCN(CC2CCOC2)CC1 (centres unmarked) [CBK304866]
2. CC(CCN1CCN(Cc2ccccc2)CC1)c1ccccc1 (centres unmarked) [CBK261902]
3. c1ccc(C2=Nn3c(Cn4nnc5ccccc54)nnc3SC2)cc1 [CBK268232]
4. COc1cc(/C=N/NC(=O)c2ccncc2)ccc1OC(=O)c1cccs1 [CBK262278]
5. CCCNC(=O)COc1ccc(CC)cc1 [CBK058199]

[out]
111
89.1
91.7
103
93.9

Items follow; give viability at 28.5 h, 10 µM for each.
1. CSCCC(Nc1ncnc2c1c(C)c(C)n2Cc1ccco1)C(=O)O (centres unmarked) [CBK307568]
2. Cc1cc(C)nc(N/C(=N\C(=O)c2ccccc2)N2CCC(C(N)=O)CC2)n1 [CBK263910]
3. CN(C)C(=O)c1ccc(-c2ccc(COC3CCN(C(=O)Cc4ccc(F)cc4)CC3)c(S(C)(=O)=O)c2)cc1 [CBK155963]
4. CCOC(=O)C1(C2CCCCC2)CCN(C(=O)c2cccnc2)CC1 [CBK137104T]
5. COc1cccc(CCNC(=O)NC(=O)C2CCN(S(C)(=O)=O)CC2)c1 [CBK034860]
6. Cc1ccccc1OCc1nn2c(COc3ccccc3)nnc2s1 [CBK267230]
7. CCOc1ccc(NC(=O)N(Cc2cnn(C)c2)CC(C)C)cc1C#N [CBK307636]
8. N#C/C(=C\c1cccn1-c1ccc(S(N)(=O)=O)cc1)c1nc2ccccc2[nH]1 [CBK266167]

[out]
[92.3, 99.4, 96.1, 95.4, 99, 85.4, 93, 103]

Parameters: items (list). Returns: viability at 28.5 h, 10 µM for each item.
1. COC(=O)[C@@H]1CN(C(=O)c2cccs2)C[C@H]1c1ccc(OC)cc1 [CBK283725]
2. Clc1ccc(CN2CCC(NCCCn3cccn3)CC2)cc1 [CBK304004]

[out]
87.1
84.2

----------
# experimental.protocol: in vitro
# experimental.setup: human, hela cells, % viability
Give measured viability at 28.5 h, 10 µM for each item. Keep answers brief.
One number for each entry, in %.

molecule | observed.result
CCN(CC)S(=O)(=O)c1c(C)[nH]c(=O)[nH]c1=O [CBK018721] | 94.1
Cc1ccc(C)c(S(=O)(=O)NCC(=O)Nc2nsc(-c3ccccc3)n2)c1 [CBK267304] | 97.4
CCOC(=O)N1CCC(NS(=O)(=O)c2cc(Cl)sc2Cl)CC1 [CBK045462] | 86.7
N#CC1=C(N)n2c(s/c(=C\c3ccncc3)c2=O)=C(C#N)C1c1ccncc1 (stereo not drawn) [CBK262563] | 96
Cc1nc(NCc2ccc(C(F)(F)F)cc2)nc(N2CCOCC2)n1 [CBK023863] | 91.9
COc1ccc(NC(=O)N[C@@H]2CC[C@@]3(c4ccc(OC)c(OC)c4)CCN(C)[C@H]3C2)c(C)c1 [CBK036460T] | 97.2
CNCC1CCN(S(=O)(=O)c2ccc(OCc3ncnn3C)cc2)CC1 [CBK304309C] | 97.6
Cc1nc(-c2cccnc2)[nH]c(=O)c1CC(=O)N(C)C1CCCCC1 [CBK306310] | 88.7

Moving on to another molecule below.
[in] viability at 28.5 h, 10 µM lookup needed for O=C(NC1CCCc2nc(N3CCC(CO)CC3)ncc21)C1CCCC1 (stereo not drawn) [CBK307415] , thanks.
[out] 87.4
